- Test system: SEM cells
- PROCEDURE DETAILS: cell viability relative to DMSO control; higher = less cytotoxic
- MEASUREMENT SETUP: RPMI 5 mM glucose + 10% FBS; 48 h; 0.0632 µM
We begin with a simple list: items and their reported cell viability.
Quick note: give the figure in %, leave out the unit.

// query Give its cell viability value. Item: "O=C(O)CCCc1ccc(N(CCCl)CCCl)cc1"
// result 114

* * *

- Test system: SEM cells
- PROCEDURE DETAILS: cell viability relative to DMSO control; higher = less cytotoxic
- MEASUREMENT SETUP: RPMI 5 mM glucose + 10% dialyzed FBS; 48 h; 0.19 µM
READOUT NAME: cell viability (%)
Report the value in % with no unit label.

Look over these answered cases.
C=C1C(=O)O[C@@H]2[C@H]3O[C@]3(C)CC/C=C(\C)CC[C@@H]12 : 105
CN(C)[C@H]\1[C@@H]2[C@@H](O)[C@H]3\C(=C(O)/[C@]2(O)C(=O)\C(=C1O)C(N)=O)C(=O)C4=C(C=CC=C4O)[C@@]3(C)O : 124
COC(=O)[C@@H]1CC2=CC(=O)CC[C@]2(C)[C@@]23O[C@@H]2C[C@@]2(C)[C@@H](CC[C@@]24CCC(=O)O4)[C@H]13 : 107
COc1ccc(CC2SC(=O)NC2=O)cc1C(=O)NCc1ccc(C(F)(F)F)cc1 (centres undefined) : 98.8
CCN(CCO)CCCC(C)Nc1ccnc2cc(Cl)ccc12 (centres undefined) : 99.6

// query # query: cell viability | item "CCC1=C2CN3C(=O)\C4=C(/C=C3/C2=NC5=CC=C(O)C=C15)[C@@](O)(CC)C(=O)OC4" | system: SEM cells
// result 15.2

Sourced from the supplement of paper PMC11451515
